Numbers sourced from patent US20230110188A1.

Target: T1, Human MuSK (R&D Systems, cat. 10189-MK, histidine tag) (human, UniProt O15146 24-495)
T1 construct: Bought protein; also called human monomeric MuSK-6xhis; not shown: histidine tag (6xhis)
T1 sequence: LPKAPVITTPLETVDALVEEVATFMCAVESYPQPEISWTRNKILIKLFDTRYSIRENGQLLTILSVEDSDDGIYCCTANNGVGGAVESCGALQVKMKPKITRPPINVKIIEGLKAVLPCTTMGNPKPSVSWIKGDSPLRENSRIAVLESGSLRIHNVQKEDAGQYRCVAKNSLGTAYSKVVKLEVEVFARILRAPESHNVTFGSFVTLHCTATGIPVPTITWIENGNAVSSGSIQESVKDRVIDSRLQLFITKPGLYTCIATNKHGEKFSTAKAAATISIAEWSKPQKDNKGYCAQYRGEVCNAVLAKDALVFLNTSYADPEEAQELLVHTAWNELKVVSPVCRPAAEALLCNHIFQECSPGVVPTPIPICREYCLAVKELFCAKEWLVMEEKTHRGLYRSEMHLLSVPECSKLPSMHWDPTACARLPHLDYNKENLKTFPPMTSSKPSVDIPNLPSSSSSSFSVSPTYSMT
Experiment: SPR (Biacore), MuSK-coated chip, antibody alone (run of first antibody 3D10a)
Listed next: entries and their corresponding amplitude of prelead without presaturating MuSK (RU).
Quick note: give the figure in RU, leave out the unit.

binder	units	reported
3D9b (antibody, human IgG1, kappa, L234A L235A, V domains shown) VH: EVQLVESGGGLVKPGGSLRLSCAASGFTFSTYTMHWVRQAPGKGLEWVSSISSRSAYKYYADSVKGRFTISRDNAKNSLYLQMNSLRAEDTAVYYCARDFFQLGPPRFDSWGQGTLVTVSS VL: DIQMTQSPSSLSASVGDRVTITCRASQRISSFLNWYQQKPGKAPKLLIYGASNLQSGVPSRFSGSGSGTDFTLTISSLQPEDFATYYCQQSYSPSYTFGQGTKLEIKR	RU	2110
3B5 (antibody, V domains shown, also called 3B5wt) VH: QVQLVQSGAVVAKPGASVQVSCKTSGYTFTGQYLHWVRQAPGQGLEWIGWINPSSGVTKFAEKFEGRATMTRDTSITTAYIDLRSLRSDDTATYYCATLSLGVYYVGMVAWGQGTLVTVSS VL: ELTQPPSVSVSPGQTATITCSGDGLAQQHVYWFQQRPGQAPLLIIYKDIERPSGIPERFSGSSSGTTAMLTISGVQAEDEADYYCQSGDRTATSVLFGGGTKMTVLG	RU	658
3F6c (antibody, human IgG1, kappa, L234A L235A, V domains shown) VH: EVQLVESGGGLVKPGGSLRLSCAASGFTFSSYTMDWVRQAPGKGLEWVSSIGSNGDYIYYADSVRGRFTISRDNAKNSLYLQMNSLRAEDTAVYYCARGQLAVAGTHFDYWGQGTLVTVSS VL: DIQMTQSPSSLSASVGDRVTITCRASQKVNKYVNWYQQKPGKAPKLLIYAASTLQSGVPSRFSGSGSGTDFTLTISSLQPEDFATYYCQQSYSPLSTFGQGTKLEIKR	RU	2510

Attention now shifts to the item below.
Lookup result for 4D3 (antibody, human IgG1, kappa, L234A L235A, V domains shown) VH: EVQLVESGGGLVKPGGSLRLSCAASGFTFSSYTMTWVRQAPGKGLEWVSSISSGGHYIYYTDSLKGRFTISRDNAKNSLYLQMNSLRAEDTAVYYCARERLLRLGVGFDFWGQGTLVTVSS VL: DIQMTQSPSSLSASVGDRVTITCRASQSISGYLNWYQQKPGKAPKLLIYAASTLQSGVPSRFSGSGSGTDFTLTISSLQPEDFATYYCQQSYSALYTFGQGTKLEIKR ; measured amplitude of prelead without presaturating MuSK (RU): 2620
